Listed here: items and their measured amyloid nucleation score.
assay: amyloid nucleation score (Sup35N fusion, yeast selection) (log enrichment); library NNK2; higher = more nucleation; inactive = no reads after selection;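 note: zero at mode of non-aggregating sequences after 7 days selection at 30°C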
measurement.type: amyloid nucleation score

- substance: "CNWGRTFCRRVSVPVRRSDL"
  experimental.value: -0.074
- substance: "PCSGSLPRTKTD"
  experimental.value: -0.167
- substance: "SWGGLSKGYCLFQSWRVVLG"
  experimental.value: 3.75
- substance: "EGGLYNCYADTPTKVW"
  experimental.value: -1.07
- substance: "SRYSSV"
  experimental.value: 0.172
- substance: "TGRISVSG"
  experimental.value: 0.14
- substance: "PVGWSNRFRTMLPDS"
  experimental.value: 0.861
- substance: "YVLKVVIRRLRRSCVSCTWH"
  experimental.value: -0.109
- substance: "VLCCPSKISTALKCWVGEAC"
  experimental.value: 0.233
